Molecular target: human orexin type 1 receptor (hOX1R) (Homo sapiens)
Construct: expressed in transfected cells
Sequence (O43613 whole entry): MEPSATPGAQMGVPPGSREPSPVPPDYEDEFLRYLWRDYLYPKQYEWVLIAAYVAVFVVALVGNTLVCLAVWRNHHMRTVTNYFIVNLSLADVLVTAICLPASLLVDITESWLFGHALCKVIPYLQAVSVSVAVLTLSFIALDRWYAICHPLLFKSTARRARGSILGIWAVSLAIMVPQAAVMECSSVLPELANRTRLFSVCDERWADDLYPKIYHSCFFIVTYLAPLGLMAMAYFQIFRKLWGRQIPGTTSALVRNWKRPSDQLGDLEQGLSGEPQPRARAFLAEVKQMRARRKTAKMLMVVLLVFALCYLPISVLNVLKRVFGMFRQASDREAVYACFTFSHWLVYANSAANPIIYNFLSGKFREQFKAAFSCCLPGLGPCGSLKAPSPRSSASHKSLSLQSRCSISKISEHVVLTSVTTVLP
Assay: Measurement of orexin type 1 receptor agonist activity (CHO cells, FLIPR TETRA intracellular Ca2+)
Format: cell-based
Settings: CHO cells expressing hOX1R, Ca2+ fluorescence; read-out: hOX1 pEC50 (converted)
Where a SMILES comes first, the peptide text is derived from it. [ ]: non-standard residue; d: D form. Gly(NCH2CH2Ph) = O=C(O)CNCCc1ccccc1; Hyp = O=C(O)[C@@H]1C[C@@H](O)CN1; Aoc(2) = CCCCCC[C@H](N)C(=O)O; Phg = N[C@H](C(=O)O)c1ccccc1
measured.quantity: EC50

Test item CCCCCC[C@H](NC(=O)[C@@H](NC(=O)[C@H](CC(C)C)NC(=O)[C@@H](NC(=O)CNC(=O)[C@@H](NC(=O)[C@H](C)NC(=O)[C@@H]1C[C@@H](O)CN1C(=O)[C@H](CC(N)=O)NC(=O)CN(CCc1ccccc1)C(=O)[C@H](CCCNC(=N)N)NC(=O)[C@@H]1C[C@@H](O)CN1C(=O)[C@@H]1C[C@@H](O)CN1C(=O)[C@@H]1C[C@@H](O)CN1)c1ccccc1)[C@@H](C)CC)[C@@H](C)O)C(N)=O [compound 9] (H-[Hyp][Hyp][Hyp]R[Gly(NCH2CH2Ph)]N[Hyp]A[Phg]GILT[Aoc(2)]-NH2) ; human orexin type 1 receptor (hOX1R) (Homo sapiens); reported EC50 was > 10 nM

src = patent US20250277001A1
